Test system: Acinetobacter baumannii
assay_method_text: Antimicrobial activity against OXA-23/OXA-58 producing Acinetobacter baumannii SR27323 in presence of human apo-transferrin by broth microdilution method
Format: functional
Recorded log10(MIC) by entry
value_kind: log10(MIC) (log10 of the value in µg/mL)

molecule_smiles | log10(MIC)
CC(C)(O/N=C(\C(=O)N[C@@H]1C(=O)N2C(C(=O)[O-])=C(C[N+]3(CCNC(=O)c4[nH]cc(O)c(=O)c4Cl)CCCC3)CS[C@H]12)c1csc(N)n1)C(=O)O | 1.51
CC(C)(O/N=C(\C(=O)N[C@@H]1C(=O)N2C(C(=O)[O-])=C(C[N+]3(CCNC(=O)c4ccc(O)c(O)c4)CCCC3)CS[C@H]12)c1csc(N)n1)C(=O)O | 1.20
CC(C)(O/N=C(\C(=O)N[C@@H]1C(=O)N2C(C(=O)[O-])=C(C[N+](C)(C)CCNC(=O)c3ccc(O)c(O)c3Cl)CS[C@H]12)c1csc(N)n1)C(=O)O | -0.30
CC(C)(O/N=C(\C(=O)N[C@@H]1C(=O)N2C(C(=O)[O-])=C(C[N+](C)(C)C3CCN(C(=O)c4ccc(O)c(O)c4Cl)CC3)CS[C@H]12)c1csc(N)n1)C(=O)O | 0.30
CC(C)(O/N=C(\C(=O)N[C@@H]1C(=O)N2C(C(=O)[O-])=C(C[n+]3cc4cc(NC(=O)c5ccc(O)c(O)c5Cl)ccn4c3)CS[C@H]12)c1csc(N)n1)C(=O)O | -0.30
CC(C)(O/N=C(\C(=O)N[C@@H]1C(=O)N2C(C(=O)[O-])=C(C[N+]3(C)CCN(C(=O)c4ccc(O)c(O)c4Cl)CC3)CS[C@H]12)c1csc(N)n1)C(=O)O | 0.00
CC(C)(O/N=C(\C(=O)N[C@@H]1C(=O)N2C(C(=O)[O-])=C(C[N+]3(CCNC(=O)c4cc(=O)c(O)cn4O)CCCC3)CS[C@H]12)c1csc(N)n1)C(=O)O | -0.30
CC(C)(O/N=C(\C(=O)N[C@@H]1C(=O)N2C(C(=O)[O-])=C(C[N+]3(CCNC(=O)c4ccc(O)c(O)c4Cl)CCCCC3)CS[C@H]12)c1csc(N)n1)C(=O)O | 0.00
CC(C)(O/N=C(\C(=O)N[C@@H]1C(=O)N2C(C(=O)[O-])=C(C[N+]3(CCN)CCCC3)CS[C@H]12)c1csc(N)n1)C(=O)O | 0.90
NCC[N+]1(CC2=C(C(=O)[O-])N3C(=O)[C@@H](NC(=O)/C(=N\OC[C@H](NC(=O)c4ccc(O)c(O)c4Cl)C(=O)O)c4csc(N)n4)[C@H]3SC2)CCCC1 | 0.60
CC(C)(O/N=C(\C(=O)N[C@@H]1C(=O)N2C(C(=O)[O-])=C(C[n+]3cc(NC(=O)c4ccc(O)c(O)c4Cl)c4n3CCN4)CS[C@H]12)c1csc(N)n1)C(=O)O | -0.30

----------
assay_method_text: Iron chelating activity in presence of cetyltrimethylammonium bromide at pH 5.5 by chromeazurol B dye based spectrophotometric method
Active and inactive are the calls of the source. No cut-off for these calls is given here.
value_kind: Activity

molecule_smiles | recorded_measurement
Cc1c(C(=O)NCC[N+]2(CC3=C(C(=O)[O-])N4C(=O)[C@@H](NC(=O)/C(=N\OC(C)(C)C(=O)O)c5csc(N)n5)[C@H]4SC3)CCCC2)ccc(O)c1O | Active
CC(C)(O/N=C(\C(=O)N[C@@H]1C(=O)N2C(C(=O)[O-])=C(C[N+]3(CCNC(=O)c4ccc(O)c(O)c4O)CCCC3)CS[C@H]12)c1csc(N)n1)C(=O)O | Active
CC(C)(O/N=C(\C(=O)N[C@@H]1C(=O)N2C(C(=O)[O-])=C(C[N+]3(CCNC(=O)c4cccc(O)c4O)CCCC3)CS[C@H]12)c1csc(N)n1)C(=O)O | Active

----------
Tested on: Acinetobacter baumannii
assay_method_text: Antimicrobial activity against OXA-23/OXA-58 producing Acinetobacter baumannii SR27323 in presence of human apo-transferrin by broth microdilution method
Format: functional
Recorded MIC by entry

molecule_smiles | MIC (µg/mL)
CC(C)(O/N=C(\C(=O)N[C@@H]1C(=O)N2C(C(=O)[O-])=C(C[N@+]3(C)[C@@H]4CC[C@H]3C[C@@H](NC(=O)c3ccc(O)c(O)c3Cl)C4)CS[C@H]12)c1csc(N)n1)C(=O)O | 1
CC(C)(O/N=C(\C(=O)N[C@@H]1C(=O)N2C(C(=O)[O-])=C(C[N+](C)(C)[C@@H]3CCN(C(=O)c4ccc(O)c(O)c4Cl)C3)CS[C@H]12)c1csc(N)n1)C(=O)O | 1
Cc1c(C(=O)NCC[N+]2(CC3=C(C(=O)[O-])N4C(=O)[C@@H](NC(=O)/C(=N\OC(C)(C)C(=O)O)c5csc(N)n5)[C@H]4SC3)CCCC2)ccc(O)c1O | 8

----------
Tested on: Acinetobacter baumannii
assay_method_text: Antimicrobial activity against OXA-23/OXA-58 producing Acinetobacter baumannii SR27323 in presence of human apo-transferrin by broth microdilution method
Format: functional

molecule_smiles | MIC [µg/mL]
Nc1nc(/C(=N/OCc2cccc(C(=O)O)c2)C(=O)N[C@@H]2C(=O)N3C(C(=O)[O-])=C(C[N+]4(CCNC(=O)c5ccc(O)c(O)c5Cl)CCCC4)CS[C@H]23)cs1 | 0.5
Nc1nc(/C(=N/O[C@H](C(=O)O)c2ccccc2)C(=O)N[C@@H]2C(=O)N3C(C(=O)[O-])=C(C[N+]4(CCNC(=O)c5ccc(O)c(O)c5Cl)CCCC4)CS[C@H]23)cs1 | 0.25
CC(C)(O/N=C(\C(=O)N[C@@H]1C(=O)N2C(C(=O)[O-])=C(C[N@+]34CCC[C@H]3CN(C(=O)c3ccc(O)c(O)c3Cl)CC4)CS[C@H]12)c1csc(N)n1)C(=O)O | 2

----------
System: Pseudomonas aeruginosa
assay_method_text: Antimicrobial activity against AmpC overproducing Pseudomonas aeruginosa SR24-12 in presence of human apo-transferrin by broth microdilution method
Type: functional
Recorded MIC by entry

molecule_smiles | test_target | uom | MIC
COc1c(C(=O)NCC[N+]2(CC3=C(C(=O)[O-])N4C(=O)[C@@H](NC(=O)/C(=N\OC(C)(C)C(=O)O)c5csc(N)n5)[C@H]4SC3)CCCC2)ccc(O)c1O | Pseudomonas aeruginosa | µg/mL | 0.125
CC(C)(O/N=C(\C(=O)N[C@@H]1C(=O)N2C(C(=O)[O-])=C(C[n+]3cc4cc(NC(=O)c5ccc(O)c(O)c5Cl)ccn4c3)CS[C@H]12)c1csc(N)n1)C(=O)O | Pseudomonas aeruginosa | µg/mL | 2
CC(C)(O/N=C(\C(=O)N[C@@H]1C(=O)N2C(C(=O)[O-])=C(C[N+]3(CCNC(=O)c4ccc(O)c(O)c4F)CCCC3)CS[C@H]12)c1csc(N)n1)C(=O)O | Pseudomonas aeruginosa | µg/mL | 0.125
CC(C)(O/N=C(\C(=O)N[C@@H]1C(=O)N2C(C(=O)[O-])=C(C[N+](C)(C)C3CCN(C(=O)c4ccc(O)c(O)c4Cl)CC3)CS[C@H]12)c1csc(N)n1)C(=O)O | Pseudomonas aeruginosa | µg/mL | 1
CC(C)(O/N=C(\C(=O)N[C@@H]1C(=O)N2C(C(=O)[O-])=C(C[N+]3(C)CCN(C(=O)c4ccc(O)c(O)c4Cl)CC3)CS[C@H]12)c1csc(N)n1)C(=O)O | Pseudomonas aeruginosa | µg/mL | 0.125

----------
Tested on: Pseudomonas aeruginosa
assay_method_text: Antimicrobial activity against AmpC overproducing Pseudomonas aeruginosa SR24-12 in presence of human apo-transferrin by broth microdilution method
Format: functional

molecule_smiles | test_target | uom | MIC
CC(C)(O/N=C(\C(=O)N[C@@H]1C(=O)N2C(C(=O)[O-])=C(C[N+]3(CCNC(=O)c4ccc(O)c(O)c4)CCCC3)CS[C@H]12)c1csc(N)n1)C(=O)O | Pseudomonas aeruginosa | µg/mL | 1
CC(C)(O/N=C(\C(=O)N[C@@H]1C(=O)N2C(C(=O)[O-])=C(C[N+]3(CCN)CCCC3)CS[C@H]12)c1csc(N)n1)C(=O)O | Pseudomonas aeruginosa | µg/mL | 8
CC(C)(O/N=C(\C(=O)N[C@@H]1C(=O)N2C(C(=O)[O-])=C(C[N+]3(CCC(=O)Nc4ccc(O)c(O)c4Cl)CCCC3)CS[C@H]12)c1csc(N)n1)C(=O)O | Pseudomonas aeruginosa | µg/mL | 0.5

----------
System: Pseudomonas aeruginosa
assay_method_text: Antimicrobial activity against AmpC overproducing Pseudomonas aeruginosa SR24-12 in presence of human apo-transferrin by broth microdilution method
Format: functional
value_kind: MIC (µg/mL)

molecule | recorded_measurement
Cc1c(C(=O)NCC[N+]2(CC3=C(C(=O)[O-])N4C(=O)[C@@H](NC(=O)/C(=N\OC(C)(C)C(=O)O)c5csc(N)n5)[C@H]4SC3)CCCC2)ccc(O)c1O | 1
CC(C)(O/N=C(\C(=O)N[C@@H]1C(=O)N2C(C(=O)[O-])=C(C[N@+]3(C)[C@@H]4CC[C@H]3C[C@@H](NC(=O)c3ccc(O)c(O)c3Cl)C4)CS[C@H]12)c1csc(N)n1)C(=O)O | 0.5
Nc1nc(/C(=N/OCc2cccc(C(=O)O)c2)C(=O)N[C@@H]2C(=O)N3C(C(=O)[O-])=C(C[N+]4(CCNC(=O)c5ccc(O)c(O)c5Cl)CCCC4)CS[C@H]23)cs1 | 0.5
CC(C)(O/N=C(\C(=O)N[C@@H]1C(=O)N2C(C(=O)[O-])=C(C[N+]3(CCNC(=O)c4ccc(O)c(O)c4Cl)CCCC3)CS[C@H]12)c1csc(N)n1)C(=O)O [CEFIDEROCOL] | 0.5
CN(CC[N+]1(CC2=C(C(=O)[O-])N3C(=O)[C@@H](NC(=O)/C(=N\OC(C)(C)C(=O)O)c4csc(N)n4)[C@H]3SC2)CCCC1)C(=O)c1ccc(O)c(O)c1Cl | 0.5
CC(C)(O/N=C(\C(=O)N[C@@H]1C(=O)N2C(C(=O)[O-])=C(C[N+]3(Cc4nnc(-c5ccc(O)c(O)c5Cl)o4)CCCC3)CS[C@H]12)c1csc(N)n1)C(=O)O | 0.5
CC(C)(O/N=C(\C(=O)N[C@@H]1C(=O)N2C(C(=O)[O-])=C(C[N+]34CCC(CC3)N(C(=O)c3ccc(O)c(O)c3Cl)CC4)CS[C@H]12)c1csc(N)n1)C(=O)O | 0.25
C[C@@H](O)[C@H]1C(=O)N2C(C(=O)O)=C(S[C@@H]3CN[C@H](C(=O)N(C)C)C3)[C@H](C)[C@H]12 [MEROPENEM] | 0.125
CC(C)(O/N=C(\C(=O)N[C@@H]1C(=O)N2C(C(=O)[O-])=C(C[N+]3(CCNC(=O)c4cc(Cl)c(O)c(O)c4Cl)CCCC3)CS[C@H]12)c1csc(N)n1)C(=O)O | 0.25
COc1c(O)ccc(C(=O)NCC[N+]2(CC3=C(C(=O)[O-])N4C(=O)[C@@H](NC(=O)/C(=N\OC(C)(C)C(=O)O)c5csc(N)n5)[C@H]4SC3)CCCC2)c1Cl | 8
CC(C)(O/N=C(\C(=O)N[C@@H]1C(=O)N2C(C(=O)[O-])=C(C[N+]3(CCNC(=O)c4ccc(O)c(O)c4Cl)CCCC3)CS[C@H]12)c1nsc(N)n1)C(=O)O | 0.25
